- target: N-terminally GST-tagged HCK (75-526) (Homo sapiens (Human), UniProt P08631)
- Sequence (P08631 75-526): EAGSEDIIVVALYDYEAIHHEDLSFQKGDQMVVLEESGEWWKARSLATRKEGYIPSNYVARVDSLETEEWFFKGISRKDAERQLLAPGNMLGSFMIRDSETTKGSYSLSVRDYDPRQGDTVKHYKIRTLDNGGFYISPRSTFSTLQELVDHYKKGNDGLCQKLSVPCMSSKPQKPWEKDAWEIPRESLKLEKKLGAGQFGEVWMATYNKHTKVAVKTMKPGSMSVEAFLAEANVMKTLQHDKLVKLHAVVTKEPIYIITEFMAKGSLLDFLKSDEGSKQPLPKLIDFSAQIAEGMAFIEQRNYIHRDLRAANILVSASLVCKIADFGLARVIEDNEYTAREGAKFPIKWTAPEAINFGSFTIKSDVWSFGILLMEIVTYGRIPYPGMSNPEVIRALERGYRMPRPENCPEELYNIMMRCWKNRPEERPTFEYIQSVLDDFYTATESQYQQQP
- experiment-description: HCK Kinase Assay (ProFluor Src-Family Kinase Assay)
- Format: biochemical
- run-parameters: HCK inhibitory activity, 50 μM ATP; read-out: HCK Activity
For each record, write down the corresponding IC50.

Exercise: Fill in: IC50 of CN1CCN(CC2(O)CCC(n3cc(-c4ccc(Oc5ccccc5)cc4)c4c(N)ncnc43)CC2)CC1 (stereo not shown) is ___
Key: 50 to 250 nM

Exercise: Entry Nc1ncnc2c1c(-c1ccc(Oc3ccccc3)cc1)cn2C1CCC2(CC1)OCC(N)CO2 (stereo not shown) has what IC50?
Key: 50 to 250 nM

Exercise: Which IC50 value is on record for COc1cc(-c2cn(C3CCN(C4CCNCC4)CC3)c3ncnc(N)c23)ccc1Oc1ccccc1 ?
Key: < 50 nM

Exercise: Suppose we examine the compound Nc1ncnc2c1c(-c1ccc(Oc3ccccc3)cc1)cn2[C@H]1CC[C@@H](N2CCN3CCC[C@@H]3C2)CC1 ; what IC50 value has been reported?
Key: < 50 nM

Exercise: Given the entry CN1CCN([C@H]2CC[C@H](n3c(Br)c(-c4ccc(Oc5ccccc5)cc4)c4c(N)ncnc43)CC2)CC1 , report its measured IC50.
Key: 50 to 250 nM

Exercise: If you can, please state the reported IC50 value of Nc1ncnc2c1c(-c1ccc(Oc3ccccc3)cc1)cn2[C@H]1CC[C@@H](N2CCS(=O)(=O)CC2)CC1 .
Key: 50 to 250 nM

Exercise: Given the compound C[C@H]1CN([C@H]2CC[C@@H](n3nc(-c4ccc(Oc5ccccc5)cc4F)c4c(N)ncnc43)CC2)CCN1 , what is its reported IC50?
Key: 50 to 250 nM
